targetOrSystem: immunoproteasome subunit LMP7 (Homo sapiens, UniProt P28062)
Construct: Lysate from the human acute lymphoblastic leukemia cell line, MOLT-4; endogenous in cells; host or cells: MOLT-4
experimentNotes: Proteasome active-site ELISA (ProCISE), LMP7, MOLT-4 lysate
Format: biochemical
assaySetup: read-out: ProCISE LMP7 MOLT4 lysate Hu 1 h CONT: IC50, 1 h continuous treatment, 25° C.
recordedMetric: log10(IC50) (log10 of the value in nM)
Could you please treat all values as log10 of IC50 in nM?

>>> df
                                givensmiles  observed
0  COc1ccc(C[C@H](NC(=O)[C@H](C)NC(=O)[C@H]2CCCN2C)C(=O)N[C@@H](Cc2ccccc2)C(=O)[C@@]2(C)CO2)cc1      1.91

Give log10(IC50) for each of the items listed below.
1. COc1ccc(C[C@H](NC(=O)[C@H](C)NC(=O)CN2CCOCC2)C(=O)N[C@@H](Cc2cccc(F)c2)C(=O)[C@@]2(C)CO2)cc1
2. COc1ccc(C[C@H](NC(=O)[C@@H](C)NC(=O)C2CCCC2)C(=O)N[C@@H](Cc2ccccc2)C(=O)[C@@]2(C)CO2)cc1
3. COc1ccc(C[C@H](NC(=O)[C@@H](NC(=O)CN2CCOCC2)C2COC2)C(=O)N[C@@H](Cc2ccccc2)C(=O)[C@@]2(C)CO2)cc1
4. COc1ccc(C[C@H](NC(=O)[C@@H](CO)NC(=O)CN2CCOCC2)C(=O)N[C@@H](Cc2ccccc2)C(=O)[C@@]2(C)CO2)cc1
5. COc1ccc(C[C@H](NC(=O)[C@H](C)NC(=O)CC2COC2)C(=O)N[C@@H](Cc2ccccc2)C(=O)[C@@]2(C)CO2)cc1
6. COc1ccc(C[C@H](NC(=O)[C@@H](C)NC(=O)[C@H]2CC[C@H](O)CC2)C(=O)N[C@@H](CC2CCCC2)C(=O)[C@@]2(C)CO2)cc1O
7. COc1ccc(C[C@H](NC(=O)[C@@H](NC(=O)CN2CCOCC2)[C@@H](C)O)C(=O)N[C@@H](Cc2ccccc2)C(=O)[C@@]2(C)CO2)cc1

Result:
1. 1.32
2. 1.77
3. 1.23
4. 2.21
5. 2.08
6. 1.60
7. 1.46

Would you mind giving log10(IC50) for every molecule in the list below?
1. COc1ccc(C[C@H](NC(=O)[C@@H](C)NC(=O)[C@H]2CC[C@H](O)CC2)C(=O)N[C@@H](Cc2ccc(O)cc2)C(=O)[C@@]2(C)CO2)cc1
2. C=CC(=O)NC[C@H](NC(=O)[C@H](C)NC(=O)CN1CCOCC1)C(=O)N[C@@H](Cc1ccccc1)C(=O)[C@@]1(C)CO1
3. C[C@H](NC(=O)CN1CCOCC1)C(=O)N[C@@H](Cc1cccnc1)C(=O)N[C@@H](Cc1ccccc1)C(=O)[C@@]1(C)CO1

Result:
1. 1.39
2. 1.69
3. 2.03

For the 2 molecules below, give their log10(IC50) values.
1. COc1ccc(C[C@H](NC(=O)[C@@H](C)NC(=O)[C@H]2CC[C@@H](O)CC2)C(=O)N[C@@H](Cc2ccccc2)C(=O)[C@@]2(C)CO2)cc1
2. COc1ccc(C[C@H](NC(=O)[C@@H](COCc2ccccc2)NC(=O)CN2CCOCC2)C(=O)N[C@@H](Cc2ccccc2)C(=O)[C@@]2(C)CO2)cc1

Result:
1. 1.02
2. 1.71
